target: T1, human PD-1^ECD-hFc protein (Immunogen A) (human, UniProt Q15116 25-167); assay: ELISA, coated human PD-1ECD-hFc; antibody 10 nM
T1 construct: Biotinylated for the Octet assay; also called PD-1-hFc; hPD-1^ECD-hFc; not shown: human IgG Fc fragment (hFc)
T1 sequence (Q15116 25-167): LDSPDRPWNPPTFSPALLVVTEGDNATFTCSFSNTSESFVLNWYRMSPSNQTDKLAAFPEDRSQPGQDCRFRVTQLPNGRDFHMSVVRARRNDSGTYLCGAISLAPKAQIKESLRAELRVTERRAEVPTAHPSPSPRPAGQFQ
Measurement type: OD450 nm
Keep it simple and answer with nothing but the number.

Lookup: Quick one: give measured OD450 nm for chimeric anti-PD-1 antibody 76G5B3 (antibody, V domains shown, Purified from hybridoma of Harbour H2L2 mice: human variable regions, rat constant regions) VH: QVQLVESGGGVVQPGRSLRLSCAASGFTFSDYGFHWVRQAPGKGLEWVAVIWYDGSNEYYTDSVKGRFTISRDNSKNTLYLQMNSLRAEDTAMYFCVVNPFDYWGQGTLVTVSS VL: DIQMTQSPSSLSAFVGDRVTITCRASQGINHYLAWYQQKPGKAPNLLILAASTLLSGVPSRFGGRGSGTDFTLIISSLQPEDVATYYCQKYDSAPYTFGQGTKLEIK
Found: 3.12

Lookup: Quick one: give measured OD450 nm for chimeric anti-PD-1 antibody 226C3A7 (antibody, V domains shown, Purified from hybridoma of Harbour H2L2 mice: human variable regions, rat constant regions) VH: QVQLQQSGPGLVNPSQTLSLTCAISGDSVSSNSGAWNWIRQSPSRGLEWLGRTYYRSKWYNDYGISVQSRITINPDTSKNHFSLQLNSVTPEDTAVYYCARDPYYYGSGSYFDYWGQGTLVTVSS VL: EIVMTQSPATLSVSPGERVTLSCRASLSVNSNLAWYQQKPGQAPRLLIYDTSTRATGVPARFSGSGSGTEFTLTISSLQSEDFAVYYCQQYHYWPLTFGGGTKVEIK
Found: 2.86

Lookup: Quick one: give measured OD450 nm for chimeric anti-PD-1 antibody 32B5C7 (antibody, V domains shown, Purified from hybridoma of Harbour H2L2 mice: human variable regions, rat constant regions) VH: EVQLLESGGGLVQPGGSLRLSCAASGFTFSSYAMSWVRQAPGKGLEWVSTISGSGGTTYYADSVKGRFTISRDNSKNTLYLQMNSLRAEDTAVYYCTLTGDPDYWGQGTLVTVSS VL: EIVLTQSPATLSLSPGERATLSCRASQSVSSYLAWYQQKPGQAPRLLIYDASKRATGIPARFSGSGSGTDFTLTISSLEPEDFAVYYCQQRNNWPLTFGGGTKVEIK
Found: 3.14

Lookup: Quick one: give measured OD450 nm for chimeric anti-PD-1 antibody 21G8F11 (antibody, V domains shown, Purified from hybridoma of Harbour H2L2 mice: human variable regions, rat constant regions) VH: EVQLLESGGGLAQPGGSLRLSCAASGFSFNTYLMHWVRQAPGKGLEWVSAISGGGGNTYYADSVKGRFTISRDNSKNTLYLQMNSLRAEDTAVYYCAKENRIPVAPFDYWGQGTLVTVSS VL: DIQMTQSPSTLSASVGDRVTITCRASQSISTWLAWYQQKPGKAPKLLIYKASSLESGVPSRFSGSGSGTEFTLTISSLQPDDLATYYCQQYNSFSWTFGQGTKVEIK
Found: 2.87
